Tested on: MRSA clinical isolates
Assay: Antibiotic susceptibility profile of MRSA clinical isolates (EUCAST breakpoints)
Assay type: cell-based, Staphylococcus aureus
Conditions: MRSA strain 46
Excerpt: Clinical MRSA isolates with multidrug resistance were obtained from the collection of the Research Institute of Antimicrobial Chemotherapy, Smolensk State Medical Academy.

Compound: C/C(=C\C(=O)OCCCCCCCCC(=O)O)C[C@@H]1OC[C@H](C[C@@H]2O[C@H]2[C@@H](C)[C@H](C)O)[C@@H](O)[C@H]1O [Mupirocin]
Drug sensibility profile: S

Compound: CN[C@H](CC(C)C)C(=O)N[C@H]1C(=O)N[C@@H](CC(N)=O)C(=O)N[C@H]2C(=O)N[C@H]3C(=O)N[C@H](C(=O)N[C@H](C(=O)O)c4cc(O)cc(O)c4-c4cc3ccc4O)[C@H](O)c3ccc(c(Cl)c3)Oc3cc2cc(c3O[C@@H]2O[C@H](CO)[C@@H](O)[C@H](O)[C@H]2O[C@H]2C[C@](C)(N)[C@H](O)[C@H](C)O2)Oc2ccc(cc2Cl)[C@H]1O [Vancomycin, vancomycin]
Drug sensibility profile: S

Compound: CCCCCCCCCC(=O)N[C@@H](Cc1c[nH]c2ccccc12)C(=O)N[C@H](CC(N)=O)C(=O)N[C@@H](CC(=O)O)C(=O)N[C@@H]1C(=O)NCC(=O)N[C@@H](CCCN)C(=O)N[C@@H](CC(=O)O)C(=O)N[C@H](C)C(=O)N[C@@H](CC(=O)O)C(=O)NCC(=O)N[C@H](CO)C(=O)N[C@@H]([C@H](C)CC(=O)O)C(=O)N[C@@H](CC(=O)c2ccccc2N)C(=O)O[C@@H]1C [Daptomycine]
Drug sensibility profile: S

###

tested on: MRSA clinical isolates; assay: Antibiotic susceptibility profile of MRSA clinical isolates (EUCAST breakpoints); assay type: cell-based, Staphylococcus aureus; conditions: MRSA strain 12

Compound: CO/N=C(\C(=O)N[C@@H]1C(=O)N2C(C(=O)O)=C(COC(C)=O)CS[C@H]12)c1csc(N)n1
Drug sensibility profile: S
--
Compound: CCC[C@@H]1C[C@@H](C(=O)N[C@@H]([C@H]2O[C@H](SC)[C@H](O)[C@@H](O)[C@H]2O)[C@H](C)Cl)N(C)C1
Drug sensibility profile: R
--
Compound: C/C(=C\C(=O)OCCCCCCCCC(=O)O)C[C@@H]1OC[C@H](C[C@@H]2O[C@H]2[C@@H](C)[C@H](C)O)[C@@H](O)[C@H]1O
Drug sensibility profile: S
--
Compound: CN(C)[C@@H]1C(O)=C(C(N)=O)C(=O)[C@@]2(O)C(O)=C3C(=O)c4c(O)cccc4[C@@](C)(O)[C@H]3C[C@@H]12
Drug sensibility profile: R
--
Compound: CN(C)c1cc(NC(=O)CNC(C)(C)C)c(O)c2c1C[C@H]1C[C@H]3[C@H](N(C)C)C(O)=C(C(N)=O)C(=O)[C@@]3(O)C(O)=C1C2=O
Drug sensibility profile: R
--
Compound: Cn1nnc(-c2ccc(-c3ccc(N4C[C@H](CO)OC4=O)cc3F)cn2)n1
Drug sensibility profile: S
--
Compound: CCCCCCCCCC(=O)N[C@@H](Cc1c[nH]c2ccccc12)C(=O)N[C@H](CC(N)=O)C(=O)N[C@@H](CC(=O)O)C(=O)N[C@@H]1C(=O)NCC(=O)N[C@@H](CCCN)C(=O)N[C@@H](CC(=O)O)C(=O)N[C@H](C)C(=O)N[C@@H](CC(=O)O)C(=O)NCC(=O)N[C@H](CO)C(=O)N[C@@H]([C@H](C)CC(=O)O)C(=O)N[C@@H](CC(=O)c2ccccc2N)C(=O)O[C@@H]1C
Drug sensibility profile: S
--
Compound: CC(=O)NC[C@H]1CN(c2ccc(N3CCOCC3)c(F)c2)C(=O)O1
Drug sensibility profile: S
--
Compound: Cc1cc(NS(=O)(=O)c2ccc(N)cc2)no1
Drug sensibility profile: S
--
Compound: CN[C@H](CC(C)C)C(=O)N[C@H]1C(=O)N[C@@H](CC(N)=O)C(=O)N[C@H]2C(=O)N[C@H]3C(=O)N[C@H](C(=O)N[C@H](C(=O)O)c4cc(O)cc(O)c4-c4cc3ccc4O)[C@H](O)c3ccc(c(Cl)c3)Oc3cc2cc(c3O[C@@H]2O[C@H](CO)[C@@H](O)[C@H](O)[C@H]2O[C@H]2C[C@](C)(N)[C@H](O)[C@H](C)O2)Oc2ccc(cc2Cl)[C@H]1O
Drug sensibility profile: S
--
Compound: CC(=O)O[C@H]1C[C@@]2(C)[C@@H](C[C@@H](O)[C@H]3[C@@]4(C)CC[C@@H](O)[C@@H](C)[C@@H]4CC[C@@]32C)/C1=C(\CCC=C(C)C)C(=O)O
Drug sensibility profile: S
--
Compound: CC[C@H]1OC(=O)[C@H](C)[C@@H](O[C@H]2C[C@@](C)(OC)[C@@H](O)[C@H](C)O2)[C@H](C)[C@@H](O[C@@H]2O[C@H](C)C[C@H](N(C)C)[C@H]2O)[C@](C)(O)C[C@@H](C)C(=O)[C@H](C)[C@@H](O)[C@]1(C)O
Drug sensibility profile: R
--
Compound: CNC(C)C1CCC(N)C(OC2C(N)CC(N)C(OC3OCC(C)(O)C(NC)C3O)C2O)O1 (stereo not shown)
Drug sensibility profile: S

###

assay: Solubility in water by HPLC; type: physicochemical; settings: water, read-out: Solubility in water, molar concentration
Outcome measure: solubility at 5 min (µM)

Compound: CCOC(=O)c1[nH]c2cc(F)ccc2c1/N=N/N1CCCC1 [BX-SI043]
Endpoint unit: µM
Val: 3

###

system: MRSA clinical isolates; assay: Antibiotic susceptibility profile of MRSA clinical isolates (EUCAST breakpoints); type: cell-based, Staphylococcus aureus; details: MRSA strain 41

Molecule: CO/N=C(\C(=O)N[C@@H]1C(=O)N2C(C(=O)O)=C(COC(C)=O)CS[C@H]12)c1csc(N)n1 [CEF, cefotaxime]
Drug sensibility profile: R
//
Molecule: CC(=O)O[C@H]1C[C@@]2(C)[C@@H](C[C@@H](O)[C@H]3[C@@]4(C)CC[C@@H](O)[C@@H](C)[C@@H]4CC[C@@]32C)/C1=C(\CCC=C(C)C)C(=O)O [Fusidic acid]
Drug sensibility profile: S
//
Molecule: CN(C)[C@@H]1C(O)=C(C(N)=O)C(=O)[C@@]2(O)C(O)=C3C(=O)c4c(O)cccc4[C@@](C)(O)[C@H]3C[C@@H]12 [TET, tetracycline]
Drug sensibility profile: R
//
Molecule: Cc1cc(NS(=O)(=O)c2ccc(N)cc2)no1 [SUL, sulfamethoxazole]
Drug sensibility profile: S

###

tested on: MRSA clinical isolates; test: Antibiotic susceptibility profile of MRSA clinical isolates (EUCAST breakpoints); format: cell-based, Staphylococcus aureus; conditions: MRSA strain 48

Given smiles: CN(C)[C@@H]1C(O)=C(C(N)=O)C(=O)[C@@]2(O)C(O)=C3C(=O)c4c(O)cccc4[C@@](C)(O)[C@H]3C[C@@H]12
Drug sensibility profile: R

Given smiles: CC(=O)O[C@H]1C[C@@]2(C)[C@@H](C[C@@H](O)[C@H]3[C@@]4(C)CC[C@@H](O)[C@@H](C)[C@@H]4CC[C@@]32C)/C1=C(\CCC=C(C)C)C(=O)O
Drug sensibility profile: S

Given smiles: CN(C)c1cc(NC(=O)CNC(C)(C)C)c(O)c2c1C[C@H]1C[C@H]3[C@H](N(C)C)C(O)=C(C(N)=O)C(=O)[C@@]3(O)C(O)=C1C2=O
Drug sensibility profile: S

Given smiles: C/C(=C\C(=O)OCCCCCCCCC(=O)O)C[C@@H]1OC[C@H](C[C@@H]2O[C@H]2[C@@H](C)[C@H](C)O)[C@@H](O)[C@H]1O
Drug sensibility profile: S

Given smiles: CC[C@H]1OC(=O)[C@H](C)[C@@H](O[C@H]2C[C@@](C)(OC)[C@@H](O)[C@H](C)O2)[C@H](C)[C@@H](O[C@@H]2O[C@H](C)C[C@H](N(C)C)[C@H]2O)[C@](C)(O)C[C@@H](C)C(=O)[C@H](C)[C@@H](O)[C@]1(C)O
Drug sensibility profile: R

###

test system: MRSA clinical isolates; experiment: Antibiotic susceptibility profile of MRSA clinical isolates (EUCAST breakpoints); format: cell-based, Staphylococcus aureus; conditions: MRSA strain 17
Outcome measure: Drug sensibility profile

Compound: CN(C)c1cc(NC(=O)CNC(C)(C)C)c(O)c2c1C[C@H]1C[C@H]3[C@H](N(C)C)C(O)=C(C(N)=O)C(=O)[C@@]3(O)C(O)=C1C2=O
Val: R

Compound: CCCCCCCCCC(=O)N[C@@H](Cc1c[nH]c2ccccc12)C(=O)N[C@H](CC(N)=O)C(=O)N[C@@H](CC(=O)O)C(=O)N[C@@H]1C(=O)NCC(=O)N[C@@H](CCCN)C(=O)N[C@@H](CC(=O)O)C(=O)N[C@H](C)C(=O)N[C@@H](CC(=O)O)C(=O)NCC(=O)N[C@H](CO)C(=O)N[C@@H]([C@H](C)CC(=O)O)C(=O)N[C@@H](CC(=O)c2ccccc2N)C(=O)O[C@@H]1C
Val: S

Compound: CC(=O)NC[C@H]1CN(c2ccc(N3CCOCC3)c(F)c2)C(=O)O1
Val: S

Compound: CCC[C@@H]1C[C@@H](C(=O)N[C@@H]([C@H]2O[C@H](SC)[C@H](O)[C@@H](O)[C@H]2O)[C@H](C)Cl)N(C)C1
Val: S

Compound: Cc1cc(NS(=O)(=O)c2ccc(N)cc2)no1
Val: I

Compound: CO/N=C(\C(=O)N[C@@H]1C(=O)N2C(C(=O)O)=C(COC(C)=O)CS[C@H]12)c1csc(N)n1
Val: S

Compound: CN(C)[C@@H]1C(O)=C(C(N)=O)C(=O)[C@@]2(O)C(O)=C3C(=O)c4c(O)cccc4[C@@](C)(O)[C@H]3C[C@@H]12
Val: S

Compound: CNC(C)C1CCC(N)C(OC2C(N)CC(N)C(OC3OCC(C)(O)C(NC)C3O)C2O)O1 (stereo not shown)
Val: R

Compound: CC(=O)O[C@H]1C[C@@]2(C)[C@@H](C[C@@H](O)[C@H]3[C@@]4(C)CC[C@@H](O)[C@@H](C)[C@@H]4CC[C@@]32C)/C1=C(\CCC=C(C)C)C(=O)O
Val: R

Compound: C/C(=C\C(=O)OCCCCCCCCC(=O)O)C[C@@H]1OC[C@H](C[C@@H]2O[C@H]2[C@@H](C)[C@H](C)O)[C@@H](O)[C@H]1O
Val: S

Compound: CC[C@H]1OC(=O)[C@H](C)[C@@H](O[C@H]2C[C@@](C)(OC)[C@@H](O)[C@H](C)O2)[C@H](C)[C@@H](O[C@@H]2O[C@H](C)C[C@H](N(C)C)[C@H]2O)[C@](C)(O)C[C@@H](C)C(=O)[C@H](C)[C@@H](O)[C@]1(C)O
Val: S

Compound: CN[C@H](CC(C)C)C(=O)N[C@H]1C(=O)N[C@@H](CC(N)=O)C(=O)N[C@H]2C(=O)N[C@H]3C(=O)N[C@H](C(=O)N[C@H](C(=O)O)c4cc(O)cc(O)c4-c4cc3ccc4O)[C@H](O)c3ccc(c(Cl)c3)Oc3cc2cc(c3O[C@@H]2O[C@H](CO)[C@@H](O)[C@H](O)[C@H]2O[C@H]2C[C@](C)(N)[C@H](O)[C@H](C)O2)Oc2ccc(cc2Cl)[C@H]1O
Val: S

Compound: Cn1nnc(-c2ccc(-c3ccc(N4C[C@H](CO)OC4=O)cc3F)cn2)n1
Val: S
